Target: T1, IRF5(222-467, S430D), S430D phosphomimetic construct of IRF5 (222-467) (human, UniProt Q13568-4 222-467)
T1 construct: range 222-467; Used in the dimer assay in two tagged forms at once (biotin tag and His tag); S and R stand 10 residues further (S440, R363), so the construct is probably numbered on an isoform 10 residues shorter; also called mutant S430D (222-467); biotin tag IRF5(222-467, S430D)
T1 sequence (Q13568 232-477 S440D limits assumed): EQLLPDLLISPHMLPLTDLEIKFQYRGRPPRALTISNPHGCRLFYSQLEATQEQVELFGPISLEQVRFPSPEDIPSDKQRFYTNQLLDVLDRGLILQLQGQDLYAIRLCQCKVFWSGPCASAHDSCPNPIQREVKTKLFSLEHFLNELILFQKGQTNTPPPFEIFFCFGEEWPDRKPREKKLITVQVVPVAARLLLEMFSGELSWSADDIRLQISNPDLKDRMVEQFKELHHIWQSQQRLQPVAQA
Test name: TR-FRET IRF5 dimerization inhibition, S430D (222-467), peptide titrated
Readout label: IC50 (nM)
Report only the number, with the unit nM understood.

binder="Ac-PFPPLPIGEEAPKDDMVRFFKDLHQYLNVV-NH2 [Ac-PFPPLPIGEEAPKDDMVRFFKDLHQYLNVV-NH2 (SEQ ID NO: 10)]" unit_descriptor=nM recorded_number=1670

We now examine a further binder.
What value of measured IC50 is listed for Ac-IRLQISNPDLKDLMVQWFKDGGPSSGAPPPS-NH2 [Ac-IRLQISNPDLKDLMVQWFKDGGPSSGAPPPS-NH2 (SEQ ID NO: 9)] ?
2420
